Where these numbers come from: ChEMBL document CHEMBL5291721

System: Sodium-dependent noradrenaline transporter (Homo sapiens, UniProt P23975) | Read-out: AC50; also: assay procedure not described here
Sequence (P23975 whole entry): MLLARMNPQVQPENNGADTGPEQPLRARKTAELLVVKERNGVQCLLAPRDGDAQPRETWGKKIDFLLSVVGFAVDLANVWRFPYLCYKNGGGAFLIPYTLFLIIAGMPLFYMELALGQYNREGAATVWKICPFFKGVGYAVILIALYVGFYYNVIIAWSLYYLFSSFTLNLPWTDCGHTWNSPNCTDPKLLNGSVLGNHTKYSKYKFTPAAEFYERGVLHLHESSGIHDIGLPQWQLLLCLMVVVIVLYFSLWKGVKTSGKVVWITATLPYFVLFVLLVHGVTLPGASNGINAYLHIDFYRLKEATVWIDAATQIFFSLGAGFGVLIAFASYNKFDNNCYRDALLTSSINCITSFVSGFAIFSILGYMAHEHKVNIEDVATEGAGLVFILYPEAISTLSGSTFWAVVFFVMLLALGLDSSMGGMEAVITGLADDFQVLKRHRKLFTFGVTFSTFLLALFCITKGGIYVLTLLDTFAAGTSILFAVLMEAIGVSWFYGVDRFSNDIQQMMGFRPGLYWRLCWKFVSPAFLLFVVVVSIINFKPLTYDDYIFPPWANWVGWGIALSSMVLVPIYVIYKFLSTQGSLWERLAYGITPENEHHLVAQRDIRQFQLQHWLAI

- COMPOUND: "COc1c(C)c2c(c(O)c1C/C=C(\\C)CCC(=O)OCCN1CCOCC1)C(=O)OC2 [MYCOPHENOLATE MOFETIL]"
  AC50: "> 30 µM"
- COMPOUND: "CN(CCCN1c2ccccc2CCc2ccccc21)CC(=O)c1ccc(Cl)cc1"
  AC50: "0.022 µM"
- COMPOUND: "CS(=O)(=O)c1ccc([C@@H](O)[C@@H](CO)NC(=O)C(Cl)Cl)cc1"
  AC50: "> 30 µM"
- COMPOUND: "C#C[C@]1(O)CC[C@H]2[C@@H]3CCC4=CCCC[C@@H]4[C@H]3CC[C@@]21C"
  AC50: "> 30 µM"

----------
# AC50 per entry for Equilibrative nucleoside transporter 1 (Homo sapiens)

- MOLECULE: "CCCCCCCCCCCC[N+](C)(C)CCOc1ccccc1"
  AC50: "> 30 µM"
- MOLECULE: "C=C1CC[C@@]2(O)[C@H]3Cc4ccc(O)c5c4[C@@]2(CCN3CC2CC2)[C@H]1O5"
  AC50: "> 30 µM"
- MOLECULE: "C#CCN(C)[C@H](C)Cc1ccccc1"
  AC50: "> 10 µM"
- MOLECULE: "COC(=O)N[C@H](C(=O)N[C@@H](Cc1ccccc1)[C@@H](O)CN(Cc1ccc(-c2ccccn2)cc1)NC(=O)[C@@H](NC(=O)OC)C(C)(C)C)C(C)(C)C"
  AC50: "> 30 µM"
- MOLECULE: "C[C@H]1O[C@H](O[C@H]2[C@H](O)[C@@H](O)[C@@H](O[C@H]3[C@H](O)[C@@H](O)C(O)O[C@@H]3CO)O[C@@H]2CO)[C@H](O)[C@@H](O)[C@@H]1N[C@H]1C=C(CO)[C@@H](O)[C@H](O)[C@H]1O (stereo partly drawn)"
  AC50: "> 30 µM"
- MOLECULE: "CC(C)NCC1CCc2cc(CO)c([N+](=O)[O-])cc2N1 (stereo not drawn)"
  AC50: "> 30 µM"
- MOLECULE: "CN(C)C(=O)OC1N=C(c2ccccc2)c2cc(Cl)ccc2N(C)C1=O (stereo not drawn)"
  AC50: "> 30 µM"
- MOLECULE: "CO/N=C(\\C(=O)N[C@@H]1C(=O)N2C(C(=O)[O-])=C(C[N+]3(C)CCCC3)CS[C@H]12)c1csc(N)n1"
  AC50: "> 300 µM"

----------
Target: Gamma-aminobutyric acid receptor subunit alpha-1 (Rattus norvegicus); also: assay procedure not described here
Sequence (P62813 whole entry): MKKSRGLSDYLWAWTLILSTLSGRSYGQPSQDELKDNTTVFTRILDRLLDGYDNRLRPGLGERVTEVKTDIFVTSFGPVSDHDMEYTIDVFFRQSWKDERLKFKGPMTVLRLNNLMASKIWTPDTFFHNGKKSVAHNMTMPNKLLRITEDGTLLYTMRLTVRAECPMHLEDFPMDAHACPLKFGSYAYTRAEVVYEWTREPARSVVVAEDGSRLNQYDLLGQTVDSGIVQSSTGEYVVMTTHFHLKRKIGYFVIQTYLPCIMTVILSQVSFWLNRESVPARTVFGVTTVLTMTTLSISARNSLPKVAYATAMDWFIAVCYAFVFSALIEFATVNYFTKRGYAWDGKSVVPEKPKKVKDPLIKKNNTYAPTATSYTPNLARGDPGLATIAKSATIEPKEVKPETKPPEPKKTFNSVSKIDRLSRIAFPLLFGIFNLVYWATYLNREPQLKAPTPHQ
Reported AC50 values for a set of compounds

- COMPOUND: "C[C@H]1C[C@@H]2[C@H]([C@@H](O)C[C@@]3(C)[C@H]2CC[C@]3(O)C(=O)COC(=O)CCC(=O)O)[C@@]2(C)C=CC(=O)C=C12 [METHYLPREDNISOLONE HEMISUCCINATE]"
  AC50: "> 30 µM"
- COMPOUND: "NC[C@H]1O[C@H](O[C@H]2[C@H](O)[C@@H](O[C@H]3O[C@H](CO)[C@@H](O)[C@H](N)[C@H]3O)[C@H](N)C[C@@H]2N)[C@H](O)[C@@H](O)[C@@H]1O"
  AC50: "> 10 µM"
- COMPOUND: "COc1ccc(C(=O)NCc2ccc(OCCN(C)C)cc2)cc1OC [ITOPRIDE]"
  AC50: "> 30 µM"
- COMPOUND: "COc1ccc2c(c1)C(=O)N(CCc1ccc(S(=O)(=O)NC(=O)NC3CCCCC3)cc1)C(=O)C2(C)C"
  AC50: "> 30 µM"
- COMPOUND: "NC(=O)c1cnccn1 [PYRAZINAMIDE]"
  AC50: "> 30 µM"
- COMPOUND: "CCCCCN(C)CCC(O)(P(=O)(O)O)P(=O)(O)O"
  AC50: "> 30 µM"
- COMPOUND: "Cc1ccc(C(=O)c2cc(O)c(O)c([N+](=O)[O-])c2)cc1"
  AC50: "> 10 µM"
- COMPOUND: "C[N+](C)(C)CCOC(N)=O"
  AC50: "> 10 µM"
- COMPOUND: "CN(C/C=C/c1ccccc1)Cc1cccc2ccccc12"
  AC50: "> 10 µM"
- COMPOUND: "CN(CCCN1c2ccccc2CCc2ccccc21)CC(=O)c1ccc(Cl)cc1"
  AC50: "> 30 µM"

----------
Target: UniProtKB P08913
Sequence (P08913 whole entry): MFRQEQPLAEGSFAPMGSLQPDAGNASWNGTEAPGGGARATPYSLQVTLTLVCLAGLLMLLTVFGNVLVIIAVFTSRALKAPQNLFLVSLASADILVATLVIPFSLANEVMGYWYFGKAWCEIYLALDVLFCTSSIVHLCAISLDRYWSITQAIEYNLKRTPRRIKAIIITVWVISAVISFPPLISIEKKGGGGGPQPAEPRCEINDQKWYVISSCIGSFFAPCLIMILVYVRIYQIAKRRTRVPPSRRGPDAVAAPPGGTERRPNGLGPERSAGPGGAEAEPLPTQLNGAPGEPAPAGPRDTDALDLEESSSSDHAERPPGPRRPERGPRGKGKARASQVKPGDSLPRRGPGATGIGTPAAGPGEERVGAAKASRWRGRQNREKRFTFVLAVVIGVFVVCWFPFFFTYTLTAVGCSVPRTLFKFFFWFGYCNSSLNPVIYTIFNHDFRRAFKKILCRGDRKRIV
Assay type: functional, cell-based

- COMPOUND: "CC(=O)O[C@@]12CO[C@@H]1C[C@H](O)[C@@]1(C)C(=O)[C@H](O)C3=C(C)[C@@H](OC(=O)[C@H](O)[C@@H](NC(=O)OC(C)(C)C)c4ccccc4)C[C@@](O)([C@@H](OC(=O)c4ccccc4)[C@H]21)C3(C)C [DOCETAXEL ANHYDROUS]"
  AC50: "> 30 µM"
- COMPOUND: "C[N+](C)(C)CC(=O)O"
  AC50: "> 30 µM"
- COMPOUND: "C1COC(NC(C2CC2)C2CC2)=N1"
  AC50: "2.6 µM"

----------
Target: UniProt P25021
Sequence (P25021 whole entry): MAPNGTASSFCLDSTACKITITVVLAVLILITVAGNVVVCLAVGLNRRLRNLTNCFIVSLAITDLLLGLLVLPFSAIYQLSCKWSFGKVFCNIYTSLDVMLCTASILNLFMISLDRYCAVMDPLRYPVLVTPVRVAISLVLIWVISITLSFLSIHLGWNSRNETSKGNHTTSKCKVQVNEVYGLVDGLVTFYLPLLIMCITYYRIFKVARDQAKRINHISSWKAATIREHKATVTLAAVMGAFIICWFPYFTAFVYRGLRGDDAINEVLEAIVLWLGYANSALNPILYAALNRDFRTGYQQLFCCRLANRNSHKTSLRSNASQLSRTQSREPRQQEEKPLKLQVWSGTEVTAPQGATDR
Type: functional, cell-based

- MOLECULE: "CC[C@]1(O)C[C@@H]2CN(CCc3c([nH]c4ccccc34)[C@@](C(=O)OC)(c3cc4c(cc3OC)N(C)[C@H]3[C@@](O)(C(N)=O)[C@H](O)[C@]5(CC)C=CCN6CC[C@]43[C@@H]65)C2)C1"
  AC50: "> 30 µM"
- MOLECULE: "CC(C(=O)O)c1ccc(C(=O)c2cccs2)cc1 (stereo not given)"
  AC50: "> 10 µM"
- MOLECULE: "CC(C)c1c(C(=O)Nc2ccccc2)c(-c2ccccc2)c(-c2ccc(F)cc2)n1CC[C@@H](O)C[C@@H](O)CC(=O)O"
  AC50: "> 10 µM"
- MOLECULE: "CC(=O)O[C@@]12CO[C@@H]1C[C@H](O)[C@@]1(C)C(=O)[C@H](O)C3=C(C)[C@@H](OC(=O)[C@H](O)[C@@H](NC(=O)OC(C)(C)C)c4ccccc4)C[C@@](O)([C@@H](OC(=O)c4ccccc4)[C@H]21)C3(C)C [DOCETAXEL ANHYDROUS]"
  AC50: "> 30 µM"
- MOLECULE: "CC(C(O)c1ccc(O)cc1)N1CCC(Cc2ccccc2)CC1 (stereo not given)"
  AC50: "> 30 µM"

----------
Parameter 'readout' = AC50; parameter 'system' = Sodium-dependent serotonin transporter (Homo sapiens, UniProt P31645). Also: assay procedure not described here.
Sequence (P31645 whole entry): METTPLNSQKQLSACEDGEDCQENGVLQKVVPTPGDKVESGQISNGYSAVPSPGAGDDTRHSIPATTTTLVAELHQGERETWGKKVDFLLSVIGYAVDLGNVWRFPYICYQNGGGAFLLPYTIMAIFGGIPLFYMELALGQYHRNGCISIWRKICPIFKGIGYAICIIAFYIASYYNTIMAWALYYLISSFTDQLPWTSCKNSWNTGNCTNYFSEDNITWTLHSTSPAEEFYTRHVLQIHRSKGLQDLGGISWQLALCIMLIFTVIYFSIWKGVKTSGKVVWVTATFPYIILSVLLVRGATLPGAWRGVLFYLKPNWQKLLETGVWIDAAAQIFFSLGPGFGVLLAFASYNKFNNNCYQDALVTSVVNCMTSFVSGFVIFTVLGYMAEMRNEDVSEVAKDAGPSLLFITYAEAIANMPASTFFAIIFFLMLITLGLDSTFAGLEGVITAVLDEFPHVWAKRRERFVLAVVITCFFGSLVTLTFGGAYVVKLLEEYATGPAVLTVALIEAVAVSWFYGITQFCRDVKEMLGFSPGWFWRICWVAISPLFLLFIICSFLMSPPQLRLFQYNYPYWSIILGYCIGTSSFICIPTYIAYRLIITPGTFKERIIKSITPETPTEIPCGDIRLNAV

- COMPOUND: "NCc1ccccc1CC(=O)N[C@@H]1C(=O)N2C(C(=O)O)=C(CSc3nnnn3CC(=O)O)CS[C@H]12 [CEFORANIDE]"
  TESTED_TARGET: "Sodium-dependent serotonin transporter (Homo sapiens, UniProt P31645)"
  AC50: "> 30 µM"
- COMPOUND: "COc1ccc(-c2cc(=O)c3c(O)cc(O[C@@H]4O[C@H](CO[C@@H]5O[C@@H](C)[C@H](O)[C@@H](O)[C@H]5O)[C@@H](O)[C@H](O)[C@H]4O)cc3o2)cc1O"
  TESTED_TARGET: "Sodium-dependent serotonin transporter (Homo sapiens, UniProt P31645)"
  AC50: "> 30 µM"
- COMPOUND: "CC(=O)OC[C@H]1O[C@@H](n2ccc(=O)[nH]c2=O)[C@H](OC(C)=O)[C@@H]1OC(C)=O [URIDINE TRIACETATE]"
  TESTED_TARGET: "Sodium-dependent serotonin transporter (Homo sapiens, UniProt P31645)"
  AC50: "> 30 µM"
- COMPOUND: "CC/C=C\\C/C=C\\C/C=C\\C/C=C\\C/C=C\\CCCC(=O)O"
  TESTED_TARGET: "Sodium-dependent serotonin transporter (Homo sapiens, UniProt P31645)"
  AC50: "> 30 µM"
- COMPOUND: "CN1C(=O)N(C)C2C1N(C)C(=O)N2C (stereo unspecified)"
  TESTED_TARGET: "Sodium-dependent serotonin transporter (Homo sapiens, UniProt P31645)"
  AC50: "> 30 µM"
- COMPOUND: "OCCN1CCN(CCCN2c3ccccc3C=Cc3ccccc32)CC1"
  TESTED_TARGET: "Sodium-dependent serotonin transporter (Homo sapiens, UniProt P31645)"
  AC50: "11.7 µM"

----------
Target: Amine oxidase [flavin-containing] A (Homo sapiens, UniProt P21397); also: assay procedure not described here
Sequence (P21397 whole entry): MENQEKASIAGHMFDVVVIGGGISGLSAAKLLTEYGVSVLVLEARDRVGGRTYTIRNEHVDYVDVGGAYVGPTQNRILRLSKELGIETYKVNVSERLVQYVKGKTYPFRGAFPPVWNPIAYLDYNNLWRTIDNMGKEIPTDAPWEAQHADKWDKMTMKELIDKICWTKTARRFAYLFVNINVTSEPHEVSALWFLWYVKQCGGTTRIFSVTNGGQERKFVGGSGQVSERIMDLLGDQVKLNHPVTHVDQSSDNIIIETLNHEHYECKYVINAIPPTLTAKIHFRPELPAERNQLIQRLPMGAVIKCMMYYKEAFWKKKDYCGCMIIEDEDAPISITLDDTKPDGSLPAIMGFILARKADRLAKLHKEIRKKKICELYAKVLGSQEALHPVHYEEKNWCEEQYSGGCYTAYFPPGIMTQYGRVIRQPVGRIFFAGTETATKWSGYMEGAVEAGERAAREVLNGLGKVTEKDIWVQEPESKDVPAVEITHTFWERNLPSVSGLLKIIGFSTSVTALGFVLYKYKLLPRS
Type: functional
Each entry below lists one item and its recorded AC50 value.

- COMPOUND: "NS(=O)(=O)c1cc(Cl)c(Cl)c(S(N)(=O)=O)c1 [DICHLORPHENAMIDE]"
  AC50: "> 10 µM"
- COMPOUND: "CCC(=O)OCC(=O)[C@@]1(OC(=O)CC)[C@H](C)C[C@H]2[C@H]3[C@H]([C@@H](O)C[C@@]21C)[C@@]1(C)C=CC(=O)C=C1C[C@H]3Cl [ALCLOMETASONE DIPROPIONATE]"
  AC50: "> 30 µM"
- COMPOUND: "CN1C(=O)CC(=O)N(c2ccccc2)c2cc(Cl)ccc21"
  AC50: "> 10 µM"
- COMPOUND: "CN1C(=O)CC(c2ccccc2)C1=O (centres undefined) [PHENSUXIMIDE]"
  AC50: "> 10 µM"
